# testedTarget: T1, VEGFR2
# T1 construct: also called KDR
# T1 sequence (P35968 20-764): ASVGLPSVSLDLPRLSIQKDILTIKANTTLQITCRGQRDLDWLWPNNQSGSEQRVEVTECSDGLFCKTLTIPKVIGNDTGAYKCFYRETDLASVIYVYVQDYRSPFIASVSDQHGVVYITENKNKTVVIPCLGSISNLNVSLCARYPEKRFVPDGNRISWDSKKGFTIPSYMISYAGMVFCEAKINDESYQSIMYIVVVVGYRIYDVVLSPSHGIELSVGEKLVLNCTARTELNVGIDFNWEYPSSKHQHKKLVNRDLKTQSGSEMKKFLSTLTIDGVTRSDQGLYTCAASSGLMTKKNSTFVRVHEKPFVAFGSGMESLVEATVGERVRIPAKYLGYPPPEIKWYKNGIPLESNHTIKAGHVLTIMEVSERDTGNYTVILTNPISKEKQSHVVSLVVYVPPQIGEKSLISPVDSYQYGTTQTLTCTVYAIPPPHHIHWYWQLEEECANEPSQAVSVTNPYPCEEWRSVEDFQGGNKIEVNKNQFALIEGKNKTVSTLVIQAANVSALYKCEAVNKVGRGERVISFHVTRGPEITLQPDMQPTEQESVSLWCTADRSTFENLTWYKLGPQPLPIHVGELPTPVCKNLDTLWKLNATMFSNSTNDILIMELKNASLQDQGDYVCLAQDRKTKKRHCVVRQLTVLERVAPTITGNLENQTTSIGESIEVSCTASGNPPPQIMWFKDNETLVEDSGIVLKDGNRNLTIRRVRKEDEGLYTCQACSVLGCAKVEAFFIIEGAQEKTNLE
# protocolNotes: EC50 measurement, summary table; assay not stated
EC50 for assorted binders
Respond with the bare value in nM.

| binder | EC50 / nM |
| --- | --- |
| VK-B8 (antibody, V domains shown, The printed VH starts with MA; also called STI-A0168; anti-VEGFR2 antibody VK-B8) VH: QVQLVQSGAEVKKPGSSVKVSCKAYGGTFGSYGVSWVRRAPGQGLEWMGRLIPIFGTRDYAQKFQGRVTLTADESTNTAYMELSSLRSEDTAVYYCARDGDYYGSGSYYGMDVWGQGTLVTVSS VL: ETTLTQSPATLSVSPGERATVSCRASQSLGSNLGWFQQKPGQAPRLLIYGASTRATGIPARFSGSGSGTEFTLTISSLQSEDFAVYFCQQYNDWPITFGQGTRLEIK | 0.25 |
| VB-A9 (antibody, V domains shown) VH: EVQLVESGGGLVKPGGSLRLSCAASGFTFSSYSMNWVRQAPGKGLEWVSSISSGSSYIYYADSLKGRFTISRDNAKNSLYLQMNSLRAEDTAVYYCARDFGNWGQGTLVTVSS VL: QSALTQPRSVSASPGQSVTISCTGTSSDVGGYDYVSWYQQHPGKAPKLMIYEVSNRPSGVSNRFSGSKSGNTASLSISGLQAEDEADYYCSSYTSTSSPVVFGGGTKLTVL | 0.25 |
| VR-B4 (antibody, V domains shown) VH: QVQLVQSGAEVKKPGSSVKVSCKAYGGTFGSYGVSWVRRAPGQGLEWMGRLIPIFGTRDYAQKFQGRVTLTADESTNTAYMELSSLRSEDTAVYYCARDGDYYGSGSYYGMDVWGQGTTVTVSS VL: SYELTQPASVSGSPGQSITISCTGSSSDVGGYNFVSWYRQHAGKAPKLMIYDVTNRPSGVSTRFSGSKSGTTASLTISGLQPDDEAHYYCSSYTTTSTWVFGGGTKLTVL | 24.3 |
| VR-E3 (antibody, V domains shown) VH: EVQLVESGGGLVKPGGSLRLSCAASGFTFSSYSMNWVRQAPGKGLEWVSSISSASSYIYYADSVKGRFTISRDNAKKSLYLQLNSLTVEDTAVYYCAREYWGSPDYWGRGTLVTVSS VL: QPVLTQPPSASGSPGQSVTISCTGTSSDVGGYNYVSWYQQHPGKAPKLMIYDVNNRPSGVPDRFSGSKSGNTASLTISGLQAEDEADYYCSSYTSSSTRVFGGGTKLTVL | 1.29 |

[in] Please give the documented EC50 of VB-E1 (antibody, V domains shown) VH: QVQLVESGAEVKKPGASVKVSCKASGYTFTNYYIHWVRQAPGQGLEWMGIINPSSGSTNYAQKFQGRVTMTRDTSTSTVYMELSSLRSEDTAVYYCARQRWDLLDDAFDIWGQGTMVTVSS VL: DIVMTQSPDSLAVSLGERATINCKTSQSVLYNANNKNYLNWYQQKPGQPPKLLIYWASARESGVPDRFSGSGSGTDFTLTIRSLQPDDFATYYCQQAISFPLTFGGGTKVEIK
[out] 0.5

[in] Please give the documented EC50 of VR-B2 (antibody, V domains shown) VH: EVQLLESGGGLVQPGGSLRLSCAASGFTFSSYAMHWVRQAPGKGLEWVAVISYDGSNKYYADSVKGRFTISRDNSKNTLYLQMNSLRAEDTAVYYCARDLGAASYWYFDLWGRGTLVTVSS VL: DIQLTQSPPSVSASVGDRVTITCRASQDISTWLAWYQQKPGSAPKVLIYAASTFQSGVPSRFRGSGSGTYFTLTISGLQPEDFATYYCQQGNSFPPTFGQGTKLEIK
[out] 0.747

The reported measurements were obtained from patent US20170166644A1.
